- Tested on: Vibrio harveyi BB7X
- experimental-details: Vibrio harveyi antimutagenicity assay against NQNO, BB7X
- Type: cell-based
- conditions-used: compound 40 ng/mL + NQNO 40 ng/mL
- Excerpt: Four Vibrio harveyi strains were used in this study: a wild-type BB7 (naturally found in the Baltic Sea) and three genetically modified strains, namely BB7M (obtained by the introduction of pAB1273 plasmid containing the genes mucA and mucB to enhance the error-prone DNA repair), BB7X (hypersensitive to UV radiation after genetic modification with Tn5TpMCS), and BB7XM (containing the two abovementioned modifications). These strains were kindly provided by Prof. […]
So I've got a bunch of compounds here, and I need their % inhibition of NQNO mutagenicity values.
Reply numerically in %, unit not repeated.

Documented % inhibition of NQNO mutagenicity of "COc1nc2c(c(=O)n(C)c(=O)n2C)n1CC(=O)O" : 74

// % inhibition of NQNO mutagenicity value for "COc1nc2c(c(=O)n(C)c(=O)n2C)n1CCCC(=O)NCc1ccccc1" : 58

response.value for "COc1nc2c(c(=O)n(C)c(=O)n2C)n1CCCC(=O)N1CCN(c2ccccc2)CC1" (field: % inhibition of NQNO mutagenicity) = 56

// "COC(=O)Cn1c(OC)nc2c1c(=O)n(C)c(=O)n2C" : % inhibition of NQNO mutagenicity value = 68

Origin of values: paper PMC5756575
